The values you see were collected from the supplement of paper PMC13380429.

Can you tell me SARS-CoV-2 infection rate for the items I'm about to list?
System: Vero E6 infected with SARS-CoV-2
assay_details: SARS-CoV-2 infection rate relative to infected DMSO; higher = more infection, active = 60 or less
test_settings: 24 h

// SARS-CoV-2 infection rate lookup, key: CC(C)(O)c1coc(S(=O)(=O)NC(=O)Nc2c3c(cc4c2CCC4)CCC3)c1 (10 µM) 93.5% (inactive)

// SARS-CoV-2 infection rate lookup, key: C[C@@H]1C[C@H]2[C@@H]3CCC4=CC(=O)C=C[C@]4(C)[C@@]3(F)[C@@H](O)C[C@]2(C)[C@H]1C(=O)CO [desoximetasone] (10 µM) 91% (inactive)

// SARS-CoV-2 infection rate lookup, key: CC[C@H](CC[C@@H](C)[C@H]1CC[C@H]2[C@@H]3CC=C4C[C@@H](O[C@@H]5O[C@H](CO)[C@@H](O)[C@H](O)[C@H]5O)CC[C@]4(C)[C@H]3CC[C@]12C)C(C)C [daucosterol] (10 µM) 102% (inactive)

// SARS-CoV-2 infection rate lookup, key: CC(C)(CCCCCC(O)CCCCCC(C)(C)C(=O)O)C(=O)O [bempedoic-acid] (10 µM) 110% (inactive)

// SARS-CoV-2 infection rate lookup, key: N#C/C(=C1/SCC(c2ccccc2Cl)S1)n1ccnc1 (centres undefined) [lanoconazole] (10 µM) 99.5% (inactive)

// SARS-CoV-2 infection rate lookup, key: Cc1cc(CCCOc2c(C)cc(-c3noc(C(F)(F)F)n3)cc2C)on1 [pleconaril] (10 µM) 108% (inactive)

// SARS-CoV-2 infection rate lookup, key: O=C(O)C1=C(CSc2nnnn2CS(=O)(=O)O)CS[C@@H]2[C@H](NC(=O)[C@H](O)c3ccccc3)C(=O)N12 [Cefonicid (sodium)] (10 µM) 112% (inactive)

// SARS-CoV-2 infection rate lookup, key: Nc1ncnc2c1ncn2[C@@H]1O[C@H](COP(=O)(O)OP(=O)(O)OP(=O)(O)O)[C@@H](O)[C@H]1O (10 µM) 99.5% (inactive)

// SARS-CoV-2 infection rate lookup, key: N=C(N)NCCC[C@H](NC(=O)[C@@H]1CCCN1C(=O)[C@@H]1CSSC[C@H](N)C(=O)N[C@@H](Cc2ccc(O)cc2)C(=O)N[C@@H](Cc2ccccc2)C(=O)N[C@@H](CCC(N)=O)C(=O)N[C@@H](CC(N)=O)C(=O)N1)C(=O)NCC(N)=O [vasopressin] (10 µM) 95.5% (inactive)

// SARS-CoV-2 infection rate lookup, key: CC1=NN(c2ccc(C)c(C)c2)C(=O)/C1=N\Nc1cccc(-c2cccc(C(=O)O)c2)c1O [eltrombopag] (10 µM) 99% (inactive)

// SARS-CoV-2 infection rate lookup, key: Oc1cc(O)cc(/C=C/c2ccc(O)c(O)c2)c1 [piceatannol] (10 µM) 112% (inactive)

// SARS-CoV-2 infection rate lookup, key: CCN1CCN(Cc2ccc(C(=O)Nc3ccc(C)c(Oc4ccc5c(c4)CC(=O)N5)c3)cc2C(F)(F)F)CC1 (0.833333 µM) 104% (inactive)

// SARS-CoV-2 infection rate lookup, key: CN1CCCN=C1/C=C/c1cccs1 [pyrantel-pamoate] (10 µM) 93.5% (inactive)

// SARS-CoV-2 infection rate lookup, key: COc1ccc(CCO[C@@H]2CCCC[C@H]2N2CC[C@@H](O)C2)cc1OC [vernakalant] (10 µM) 110% (inactive)

// SARS-CoV-2 infection rate lookup, key: Oc1ccc2c(c1)CC[C@H](c1ccccc1)[C@@H]2c1ccc(OCCN2CCCC2)cc1 [lasofoxifene] (0.833333 µM) 97% (inactive)

// SARS-CoV-2 infection rate lookup, key: O[C@@H]1CCCC[C@H]1N1CCC(c2ccccc2)CC1 (racemic) [vesamicol] (10 µM) 98.5% (inactive)

// SARS-CoV-2 infection rate lookup, key: CC[C@@H](CO)NC(=O)[C@@H]1C=C2c3cccc4c3c(cn4C)C[C@H]2N(C)C1 [methysergide] (10 µM) 110% (inactive)

// SARS-CoV-2 infection rate lookup, key: C[C@H](CCC(=O)O)[C@H]1CC[C@H]2[C@@H]3C[C@H](O)[C@@H]4C[C@H](O)CC[C@]4(C)[C@H]3CC[C@]12C [Hyodeoxycholic acid (HDCA)] (10 µM) 102% (inactive)

// SARS-CoV-2 infection rate lookup, key: CC/C(=C(/c1ccc(/C=C/C(=O)O)cc1)c1ccc2[nH]ncc2c1)c1ccc(F)cc1Cl (10 µM) 103% (inactive)

* * *

System: Vero E6 infected with SARS-CoV-2
assay_details: inhibition of SARS-CoV-2 cytopathic effect; higher = more antiviral protection, active = above 15
test_settings: 833.33 nM; 48 h
readout_kind: inhibition of SARS-CoV-2 cytopathic effect (%)
Answer in %, number only, no unit symbol.

Form: Entry = "CCCN(CCC)C(=O)C1=Cc2ccc(-c3ccc(C(=O)N4CCCC4)cc3)cc2N=C(N)C1" | System = Vero E6 infected with SARS-CoV-2 | inhibition of SARS-CoV-2 cytopathic effect = ____ 1.37

Form: Entry = "COCC(=O)O[C@]1(CCN(C)CCCc2nc3ccccc3[nH]2)CCc2cc(F)ccc2[C@@H]1C(C)C" | System = Vero E6 infected with SARS-CoV-2 | inhibition of SARS-CoV-2 cytopathic effect = ____ -0.56

Form: Entry = "COc1ccc(CCNCc2ccc(OCc3ccc(Cl)nc3)c(OC)c2)cc1OC" | System = Vero E6 infected with SARS-CoV-2 | inhibition of SARS-CoV-2 cytopathic effect = ____ -1.6

Form: Entry = O=C1NC(=O)C(=Cc2ccc(-c3ccc(F)cc3)o2)S1 (stereo in doubt) | System = Vero E6 infected with SARS-CoV-2 | inhibition of SARS-CoV-2 cytopathic effect = ____ 0.32

Form: Entry = "CC(=O)SC[C@@H](C)C(=O)N1CCC[C@H]1C(=O)N[C@@H](Cc1ccccc1)C(=O)O" | System = Vero E6 infected with SARS-CoV-2 | inhibition of SARS-CoV-2 cytopathic effect = ____ -1.33

Form: Entry = "O=C1NS(=O)(=O)c2ccccc21" | System = Vero E6 infected with SARS-CoV-2 | inhibition of SARS-CoV-2 cytopathic effect = ____ -0.12

Form: Entry = "CN(c1nccc(=O)[nH]1)C1CCN(c2nc3ccccc3n2Cc2ccc(F)cc2)CC1" | System = Vero E6 infected with SARS-CoV-2 | inhibition of SARS-CoV-2 cytopathic effect = ____ 0.93

Form: Entry = "NS(=O)(=O)OC[C@@H]1C[C@@H](n2ccc3c(N[C@H]4CCc5ccccc54)ncnc32)C[C@@H]1O" | System = Vero E6 infected with SARS-CoV-2 | inhibition of SARS-CoV-2 cytopathic effect = ____ -1.35

Form: Entry = "CN(C)CCc1c[nH]c2ccc(Cn3cncn3)cc12" | System = Vero E6 infected with SARS-CoV-2 | inhibition of SARS-CoV-2 cytopathic effect = ____ -0.7

Form: Entry = "COC(=O)c1sccc1S(=O)(=O)Nc1ccc(Nc2ccccc2)cc1OC" | System = Vero E6 infected with SARS-CoV-2 | inhibition of SARS-CoV-2 cytopathic effect = ____ 5.14

Form: Entry = "CCOc1nc2cccc(C(=O)O)c2n1Cc1ccc(-c2ccccc2-c2nnn[nH]2)cc1" | System = Vero E6 infected with SARS-CoV-2 | inhibition of SARS-CoV-2 cytopathic effect = ____ -3.84

Form: Entry = "Clc1ccccc1CN1CCc2sccc2C1" | System = Vero E6 infected with SARS-CoV-2 | inhibition of SARS-CoV-2 cytopathic effect = ____ 1.94

Form: Entry = "CCCCNc1ccc(C(=O)OCCN(C)C)cc1" | System = Vero E6 infected with SARS-CoV-2 | inhibition of SARS-CoV-2 cytopathic effect = ____ -2.39

Form: Entry = "OC[C@H]1NCC[C@@H](O)[C@@H]1O" | System = Vero E6 infected with SARS-CoV-2 | inhibition of SARS-CoV-2 cytopathic effect = ____ 2.42

Form: Entry = "Oc1ccc2c3c1O[C@H]1c4[nH]c5c(c4C[C@@]4(O)[C@@H](C2)N(CC2CC2)CC[C@]314)C[C@@]1(O)[C@H]2Cc3ccc(O)c4c3[C@@]1(CCN2CC1CC1)[C@H]5O4" | System = Vero E6 infected with SARS-CoV-2 | inhibition of SARS-CoV-2 cytopathic effect = ____ 1.16

Form: Entry = "Cc1[nH]c2ccccc2c1CCNC(=O)c1cccs1" | System = Vero E6 infected with SARS-CoV-2 | inhibition of SARS-CoV-2 cytopathic effect = ____ 1.32

* * *

Test system: Vero E6 infected with SARS-CoV-2
assay_details: inhibition of SARS-CoV-2 cytopathic effect; higher = more antiviral protection, active = above 15
test_settings: 8.33 nM; 48 h
readout_kind: inhibition of SARS-CoV-2 cytopathic effect (%)
Answer in %, number only, no unit symbol.

// inhibition of SARS-CoV-2 cytopathic effect lookup, key: Cn1c(=O)c2c(ncn2CCOC(=O)C(C)(C)Oc2ccc(Cl)cc2)n(C)c1=O [etofylline-clofibrate] 3.79

// inhibition of SARS-CoV-2 cytopathic effect lookup, key: CC[N+](C)(CC)CCOC(=O)C(O)(c1ccccc1)C1CCCCC1 (stereo unspecified) -1.33

// inhibition of SARS-CoV-2 cytopathic effect lookup, key: "CCN(c1ccccc1)c1cc(=NC)n(C)c(C)n1" -5.43

// inhibition of SARS-CoV-2 cytopathic effect lookup, key: "O=C1CCCC(=O)C1C(=O)c1ccc(C(F)(F)F)cc1[N+](=O)[O-]" 0.93

// inhibition of SARS-CoV-2 cytopathic effect lookup, key: "C[C@H]1[C@H](C)CC[C@]2(C(=O)O)CC[C@]3(C)C(=CC[C@@H]4[C@@]5(C)C[C@@H](O)[C@H](O)C(C)(C)[C@@H]5CC[C@]43C)[C@H]12" -0.43

// inhibition of SARS-CoV-2 cytopathic effect lookup, key: "CN(C)Cc1ccc(-c2nc3cccc4c3n2CCNC4=O)cc1" 4.23
